Target or system: Kras and SOS1 (biotin-tagged human Kras loaded with GDP, His-tagged human SOS1) (Homo sapiens, UniProt P01116, G12D)
Construct: made in house; host or cells: E. coli (stated for Kras only)
Sequence (P01116 1-188 isoform P01116-2 G12D): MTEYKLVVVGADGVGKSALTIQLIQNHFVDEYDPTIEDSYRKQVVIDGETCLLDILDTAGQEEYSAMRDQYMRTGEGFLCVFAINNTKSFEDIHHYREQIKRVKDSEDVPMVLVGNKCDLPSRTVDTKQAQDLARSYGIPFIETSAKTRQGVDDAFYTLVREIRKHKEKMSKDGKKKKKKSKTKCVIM
Measurement notes: Protein-protein interaction inhibition between Kras and SOS1 (KrasGl2D-SOS PPI) using AlphaScreen
Format: binding
Measurement setup: AlphaScreen; biotin-tagged human Kras loaded with GDP, His-tagged human SOS1; read-out: KRAS G12D-SOS PPI IC50
Positions of bridges follow the written chain, without caps; N, C: chain ends. Non-standard residues stand in square brackets, D forms with d. Residues, ends and D or L forms follow the SMILES beside them. *: point of attachment. hPhe(3-Cl-4-CF3) = N[C@@H](CCc1ccc(C(F)(F)F)c(Cl)c1)C(=O)O; NMePhe(3-CF3) = CN[C@@H](Cc1cccc(C(F)(F)F)c1)C(=O)O; NMePhe(4-Cl) = CN[C@@H](Cc1ccc(Cl)cc1)C(=O)O; NMePhe(4-Me) = CN[C@@H](Cc1ccc(C)cc1)C(=O)O; NMePhe(4-F) = CN[C@@H](Cc1ccc(F)cc1)C(=O)O; NMeGly(cPent) = CN[C@H](C(=O)O)C1CCCC1; Phe(3-I) = N[C@@H](Cc1cccc(I)c1)C(=O)O; Phe(2-F) = N[C@@H](Cc1ccccc1F)C(=O)O; NMeCha = CN[C@@H](CC1CCCCC1)C(=O)O; NMeD = CN[C@@H](CC(=O)O)C(=O)O; NMeL = CN[C@@H](CC(C)C)C(=O)O; NMeV = CN[C@H](C(=O)O)C(C)C; d(β3hA) = C[C@@H](N)CC(=O)O; NMeA = CN[C@@H](C)C(=O)O; NMeAib = CNC(C)(C)C(=O)O; Piperidide = C1CCN(*)CC1; Ac5c = NC1(C(=O)O)CCCC1; Aze = O=C(O)[C@@H]1CCN1; Abu = CC[C@H](N)C(=O)O; Sar = CNCC(=O)O
Endpoint label: IC50 (nM)
Field: numeric (nM). Do not append units.

Worked set:
CC[C@H](C)[C@@H]1NC(=O)[C@H](CC(C)C)N(C)C(=O)C[C@@H](C(=O)N(C)C)N(C)C(=O)[C@H](C2CCCC2)N(C)C(=O)C2(CCCC2)NC(=O)[C@H](Cc2ccc(F)cc2)N(C)C(=O)[C@H](CCc2ccc(C(F)(F)F)c(Cl)c2)NC(=O)CN(C)C(=O)[C@H](CC2CCCCC2)N(C)C(=O)[C@@H]2CCN2C(=O)[C@H](C)N(C)C1=O [Compound 920] ([NMeL]I[NMeA][Aze][NMeCha][Sar][hPhe(3-Cl-4-CF3)][NMePhe(4-F)][Ac5c][NMeGly(cPent)][NMeD]-NMe2; lactam N-11) | 15
CC[C@H](C)[C@@H]1NC(=O)[C@H](CC(C)C)N(C)C(=O)C[C@@H](C(=O)N2CCCCC2)N(C)C(=O)[C@H](CC(C)C)NC(=O)C(C)(C)N(C)C(=O)[C@H](Cc2ccccc2F)NC(=O)[C@H](Cc2cccc(I)c2)NC(=O)CN(C)C(=O)[C@H](Cc2ccc(C)cc2)N(C)C(=O)[C@@H]2CCN2C(=O)CN(C)C1=O [Compound 638] ([NMeL]I[Sar][Aze][NMePhe(4-Me)][Sar][Phe(3-I)][Phe(2-F)][NMeAib]L[NMeD]-Piperidide; lactam N-11) | 45
CC[C@@H]1NC(=O)[C@H](Cc2cccc(I)c2)NC(=O)CN(C)C(=O)[C@H](Cc2ccc(Cl)cc2)N(C)C(=O)CN(C)C(=O)CN(C)C(=O)[C@H]([C@@H](C)CC)NC(=O)[C@H](CC(C)C)N(C)C(=O)C[C@@H](C(=O)N2CCCCC2)N(C)C(=O)[C@H](CC(C)C)NC(=O)C(C)(C)N(C)C1=O [Compound 457] ([NMeL]I[Sar][Sar][NMePhe(4-Cl)][Sar][Phe(3-I)][Abu][NMeAib]L[NMeD]-Piperidide; lactam N-11) | 69
CC[C@H](C)[C@@H]1NC(=O)[C@H](C)N(C)C(=O)C[C@@H](C)NC(=O)[C@H](C(C)C)N(C)C(=O)C2(CCCC2)NC(=O)[C@@H]2CCCN2C(=O)[C@H](CCc2ccc(C(F)(F)F)c(Cl)c2)NC(=O)[C@H]2CCCN2C(=O)[C@H](Cc2ccc(F)cc2)N(C)C(=O)[C@@H]2CCCN2C(=O)CN(C)C1=O [Compound 1667] (cyclo([Ac5c][NMeV][d(β3hA)][NMeA]I[Sar]P[NMePhe(4-F)][dP][hPhe(3-Cl-4-CF3)]P)) | 13

Now let's try a different one.
What does the record list as IC50 for CC[C@H](C)[C@@H]1NC(=O)[C@H](CC(C)C)N(C)C(=O)C[C@@H](C)NC(=O)[C@H](C(C)C)N(C)C(=O)C2(CCCC2)NC(=O)[C@@H]2CCCN2C(=O)[C@H](CCc2ccc(C(F)(F)F)c(Cl)c2)NC(=O)CN(C)C(=O)[C@H](Cc2cccc(C(F)(F)F)c2)N(C)C(=O)CN(C)C(=O)CN(C)C1=O [Compound 1575] (cyclo([Ac5c][NMeV][d(β3hA)][NMeL]I[Sar][Sar][NMePhe(3-CF3)][Sar][hPhe(3-Cl-4-CF3)]P)) ?
45
